Measured IC50, listed per entry.
- TARGET DESC: hTAS2R46 (Homo sapiens)
- Construct: expressed in transfected cells; host or cells: HEK293T cells stably expressing chimeric Gα16gust44, transient transfection
- TEST METHOD NOTES: calcium imaging (FLIPR), effect on agonist-dependent hTAS2R activation
- Format: cell-based
- CONDITION INFO: agonist denatonium benzoate 300 μM
- Method: Human TAS2R cDNAs were cloned into pcDNA5/FRT (Invitrogen, San Diego, Calif.). […] Calcium Imaging experiments were performed 24 h after transfection using a Fluorometric Imaging Plate Reader (FLIPR, Molecular Devices, Munich, Germany) as previously described (Bufe et al., supra). […] Fluorescence signals after application of test substances were corrected for and normalized to background fluorescence (ΔF/F═(F−F0)/F0), and baseline noise was subtracted. […]
Report as a plain number; the unit µM is understood.

COMPOUND	TARGET DESC	MEASUREMENT KIND	REPORTED RESULT
C/C1=C\C[C@H](O)[C@@H](C)C[C@H]2OC(=O)[C@@H](C)[C@@H]2CC1 [3β hydroxy pelenolide]	hTAS2R46 (Homo sapiens)	IC50	51.4

Moving on to the next compound.
Data request: Provide only the value of recorded IC50 for C/C1=C\C[C@H](O)/C(C)=C/[C@H]2OC(=O)[C@@H](C)C2CC1 (stereo partly drawn) [3β hydroxy dihydro costunolide]
Data returned: 6.78

----------
Measured IC50, listed per entry.
- TARGET DESC: hTAS2R46 (Homo sapiens, UniProt P59540)
- Construct: expressed in transfected cells; host or cells: HEK293T cells stably expressing chimeric Gα16gust44, transient transfection
- Sequence (P59540 1-309): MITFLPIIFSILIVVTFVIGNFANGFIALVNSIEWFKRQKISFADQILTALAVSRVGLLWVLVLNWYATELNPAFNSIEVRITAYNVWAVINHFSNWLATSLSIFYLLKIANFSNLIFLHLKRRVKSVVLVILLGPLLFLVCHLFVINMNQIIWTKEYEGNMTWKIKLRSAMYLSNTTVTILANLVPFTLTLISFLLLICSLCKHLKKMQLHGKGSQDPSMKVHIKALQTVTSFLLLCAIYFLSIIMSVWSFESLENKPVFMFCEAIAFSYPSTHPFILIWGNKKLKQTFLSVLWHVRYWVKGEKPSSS
- TEST METHOD NOTES: calcium imaging (FLIPR), effect on agonist-dependent hTAS2R activation
- Assay type: cell-based
- CONDITION INFO: agonist absinthin 100 μM
- Method: Human TAS2R cDNAs were cloned into pcDNA5/FRT (Invitrogen, San Diego, Calif.). […] Calcium Imaging experiments were performed 24 h after transfection using a Fluorometric Imaging Plate Reader (FLIPR, Molecular Devices, Munich, Germany) as previously described (Bufe et al., supra). […] Fluorescence signals after application of test substances were corrected for and normalized to background fluorescence (ΔF/F═(F−F0)/F0), and baseline noise was subtracted. […]
Report as a plain number; the unit µM is understood.

MOLECULE	TARGET DESC	IC50 (µM)
C/C1=C\C[C@H](O)[C@@H](C)C[C@H]2OC(=O)[C@@H](C)[C@@H]2CC1 [3β hydroxy pelenolide]	hTAS2R46 (Homo sapiens, UniProt P59540)	57.8

Moving on to the next molecule.
Data request: Provide only the value of recorded IC50 for C/C1=C\C[C@H](O)/C(C)=C/[C@H]2OC(=O)[C@@H](C)C2CC1 (stereo partly drawn) [3β hydroxy dihydro costunolide]
Data returned: 14.1

----------
- TARGET DESC: hTAS2R10 (Homo sapiens)
- Sequence (Q9NYW0 whole entry): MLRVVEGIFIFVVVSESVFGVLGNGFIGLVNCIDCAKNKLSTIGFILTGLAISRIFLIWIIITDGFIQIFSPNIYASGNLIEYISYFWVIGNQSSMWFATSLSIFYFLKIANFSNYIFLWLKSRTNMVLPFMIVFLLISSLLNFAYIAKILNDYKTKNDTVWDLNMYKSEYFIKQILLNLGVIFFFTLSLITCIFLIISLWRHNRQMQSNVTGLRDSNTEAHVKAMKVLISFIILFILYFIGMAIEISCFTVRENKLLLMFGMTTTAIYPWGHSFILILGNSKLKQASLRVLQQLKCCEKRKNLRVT
- TEST METHOD NOTES: calcium imaging (FLIPR), activation of hTAS2R-transfected HEK293T-Gα16gust44 cells
- CONDITION INFO: concentration-response, intracellular calcium
MEASUREMENT KIND: pEC50
Just so you know, pEC50 here is -log10 of the concentration in molar units; reply with that number alone.

Data request: Provide only the value of recorded pEC50 for C/C1=C\C[C@H](O)/C(C)=C/[C@H]2OC(=O)[C@@H](C)C2CC1 (stereo partly drawn) [3β hydroxy dihydro costunolide]
Data returned: 4.60

----------
- TARGET DESC: hTAS2R44 (Homo sapiens, UniProt P59538, L162M)
- Sequence (P59538 whole entry L162M): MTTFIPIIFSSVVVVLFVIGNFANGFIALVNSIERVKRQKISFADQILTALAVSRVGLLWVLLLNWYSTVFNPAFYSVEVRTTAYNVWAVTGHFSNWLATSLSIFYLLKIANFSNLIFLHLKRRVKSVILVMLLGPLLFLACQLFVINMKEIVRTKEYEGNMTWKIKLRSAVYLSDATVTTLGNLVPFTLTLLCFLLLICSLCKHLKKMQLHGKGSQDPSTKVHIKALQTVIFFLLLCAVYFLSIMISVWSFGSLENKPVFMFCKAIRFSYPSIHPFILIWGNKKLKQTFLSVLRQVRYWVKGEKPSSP
- TEST METHOD NOTES: calcium imaging (FLIPR), activation of hTAS2R-transfected HEK293T-Gα16gust44 cells
- CONDITION INFO: concentration-response, intracellular calcium
MEASUREMENT KIND: pEC50
Just so you know, pEC50 here is -log10 of the concentration in molar units; reply with that number alone.

Data request: Provide only the value of recorded pEC50 for C/C1=C\C[C@H](O)/C(C)=C/[C@H]2OC(=O)[C@@H](C)C2CC1 (stereo partly drawn) [3β hydroxy dihydro costunolide]
Data returned: 4.50

----------
- TARGET DESC: hTAS2R46 (Homo sapiens)
- Construct: expressed in transfected cells; host or cells: HEK293T cells stably expressing chimeric Gα16gust44, transient transfection
- TEST METHOD NOTES: calcium imaging (FLIPR), effect on agonist-dependent hTAS2R activation
- Assay type: cell-based
- CONDITION INFO: agonist strychnine 3 μM
Measured IC50, listed per entry.
Report as a plain number; the unit µM is understood.

MOLECULE	IC50 [µM]
C/C1=C\C[C@H](O)/C(C)=C/[C@H]2OC(=O)[C@@H](C)C2CC1 (stereo partly drawn) [3β hydroxy dihydro costunolide]	15.3

Moving on to the next molecule.
Data request: Provide only the value of recorded IC50 for C/C1=C\C[C@H](O)[C@@H](C)C[C@H]2OC(=O)[C@@H](C)[C@@H]2CC1 [3β hydroxy pelenolide]
Data returned: 84.9
